Where do these numbers come from? They come from ChEMBL document CHEMBL1961873.

- Tested on: Tyrosine-protein kinase ABL1 (Homo sapiens), P00519 [H396P]
- conditions: at 1 µM
Recorded measurements of inhibition, one per entry
measured.endpoint: inhibition (%)

structure.as.smiles: CCCN1CCC(c2ccc(Nc3nc(Nc4cc(F)ccc4C(N)=O)c4cc[nH]c4n3)c(OC)c2)CC1
observed: 8.82

structure.as.smiles: N#Cc1c(NC(=O)c2ccc(F)cc2)sc2c1CCCC2
observed: 0.11

structure.as.smiles: CNC(=O)c1cc(-c2ccc(F)cc2)cc(-c2ccc(S(=O)(=O)N3CCCC3)cc2)c1N
observed: 3.32

structure.as.smiles: CS(=O)(=O)CCNCc1coc(-c2ccc3ncnc(Nc4ccc(OCc5ccccc5)cc4)c3c2)c1
observed: 4.46

structure.as.smiles: CCc1nn2ncccc2c1-c1ccnc(NC2CC2)n1
observed: 6.43

structure.as.smiles: CC(=O)Nc1cccc(C#Cc2cncnc2Nc2ccc(OCc3cccc(F)c3)c(Cl)c2)c1
observed: 1.25

structure.as.smiles: [O-][S+]1CCN(Cc2ccc(-c3ccc4ncnc(Nc5ccc(OCc6cccc(F)c6)c(Cl)c5)c4c3)o2)CC1
observed: 5.91

structure.as.smiles: COc1cccc(-c2c[nH]c3c(N/N=C/c4ccncc4)ncnc23)c1
observed: 93.6

structure.as.smiles: Nc1nc(-c2ccc(F)cc2)c(-c2ccc3ncccc3n2)s1
observed: 24.2

structure.as.smiles: Cc1cccc2c1NC(=O)/C2=N\Nc1ccc(S(N)(=O)=O)cc1
observed: 7.83
